target: MERTK (UniProt Q12866); assay: phosphorylation enrichment, bacterial display (enrichment ratio); higher = better substrate or ligand; peptides without Tyr show the background;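 further: 11-residue human phosphosite peptides and single-mutation variants displayed on the E. coli surface, counted by deep sequencing, each peptide's frequency after selection divided by its frequency in the unselected input library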;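 further: frequency after pTyr selection over input frequency; kinase dosed for 20-30% of maximal phosphorylation in three min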
Sequence (Q12866 whole entry, looked up): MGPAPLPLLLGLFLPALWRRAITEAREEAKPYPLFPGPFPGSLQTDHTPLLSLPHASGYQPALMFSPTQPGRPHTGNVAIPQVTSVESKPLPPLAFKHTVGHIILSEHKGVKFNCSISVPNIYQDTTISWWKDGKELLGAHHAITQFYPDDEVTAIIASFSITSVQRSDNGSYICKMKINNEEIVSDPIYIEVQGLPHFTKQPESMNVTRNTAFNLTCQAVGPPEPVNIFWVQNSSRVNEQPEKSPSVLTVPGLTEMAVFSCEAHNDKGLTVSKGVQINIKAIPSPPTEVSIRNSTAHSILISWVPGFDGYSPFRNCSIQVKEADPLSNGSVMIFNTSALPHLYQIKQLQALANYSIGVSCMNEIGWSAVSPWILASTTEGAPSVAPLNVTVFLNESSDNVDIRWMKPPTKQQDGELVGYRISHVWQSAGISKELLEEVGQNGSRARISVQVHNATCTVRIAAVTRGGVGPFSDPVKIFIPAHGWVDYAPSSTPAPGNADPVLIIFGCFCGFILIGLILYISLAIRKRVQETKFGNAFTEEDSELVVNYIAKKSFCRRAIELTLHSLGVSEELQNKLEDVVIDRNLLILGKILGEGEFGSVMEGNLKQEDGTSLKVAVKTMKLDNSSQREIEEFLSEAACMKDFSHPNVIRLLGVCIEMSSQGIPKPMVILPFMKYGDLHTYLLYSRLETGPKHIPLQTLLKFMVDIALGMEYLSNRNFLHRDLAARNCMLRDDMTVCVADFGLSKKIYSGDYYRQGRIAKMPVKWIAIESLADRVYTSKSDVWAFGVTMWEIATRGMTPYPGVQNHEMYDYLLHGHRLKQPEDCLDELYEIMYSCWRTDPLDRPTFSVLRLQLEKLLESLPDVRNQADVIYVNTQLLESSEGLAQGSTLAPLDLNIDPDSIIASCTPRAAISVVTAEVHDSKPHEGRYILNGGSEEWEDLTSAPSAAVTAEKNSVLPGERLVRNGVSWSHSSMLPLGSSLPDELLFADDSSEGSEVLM
Class TRUE: phosphorylation enrichment at least 0.4. Class FALSE: phosphorylation enrichment below 0.4.

Example results:
PIYEGYALPHA [ACTA1_Y171]; TRUE
YSNKLYYQLEQ [PDPR_Y109]; TRUE
DQNVEYKGTVW [FHL1_Y117]; TRUE

*Q* Determine whether this sequence has phosphorylation enrichment no lower than 0.4: DTKDDYSALSV [IL17RB_Y457_N458S]
*A* TRUE

*Q* Say whether GVRLFYRVMES [RB1_Y454_YF] shows phosphorylation enrichment of 0.4 or more.
*A* FALSE

*Q* Given QNTGVYFDLFG [PTPN11_Y62_D61V_YF] , state whether its phosphorylation enrichment is at least 0.4.
*A* TRUE

*Q* Textbook exercise: given the entry SLGSPYEQPPR [PDLIM4_Y137_G138E] , state whether its phosphorylation enrichment is greater than or equal to 0.4.
*A* TRUE

*Q* Exam item: decide whether the reported phosphorylation enrichment for RLCQDYDTIGP [ANK1_Y1073] is at least 0.4.
*A* TRUE

*Q* Hi, just wondering whether TFGVLYKARNK [CDK2_Y19_V18L_YF] shows phosphorylation enrichment of 0.4 or higher.
*A* FALSE

*Q* Record LADKPYTFEDY [FXN_Y118] ; criterion: phosphorylation enrichment no lower than 0.4. Met?
*A* TRUE

*Q* Evaluate KRAIGYYSATS [FAM120A_Y327] : phosphorylation enrichment at minimum 0.4?
*A* TRUE

*Q* Tell me whether phosphorylation enrichment is at least 0.4 here: SVKVYYKKCWF [EPHA7_Y202_S207F]
*A* FALSE

*Q* Identify whether the reported phosphorylation enrichment of the following sequence is 0.4 or greater: DLLNSYIENEG [HSPA4L_Y600]
*A* FALSE

*Q* Kindly determine if phosphorylation enrichment recorded for FASALYRQRRS [FGF11_Y162_YF] is above or exactly 0.4.
*A* TRUE

*Q* Exam item: decide whether the reported phosphorylation enrichment for LFLASYCIGGG [UBD_Y161_C160S] is at least 0.4.
*A* TRUE

*Q* Can YQLPYYNMVPS [BMPR1A_Y458] be said to have phosphorylation enrichment at or above 0.4?
*A* TRUE
